# target-desc: KRAS G12D (Homo sapiens (Human), UniProt P01116+P62937, G12D)
# Sequence (P01116-2 other isoform, or with tags, fused parts or gaps G12D): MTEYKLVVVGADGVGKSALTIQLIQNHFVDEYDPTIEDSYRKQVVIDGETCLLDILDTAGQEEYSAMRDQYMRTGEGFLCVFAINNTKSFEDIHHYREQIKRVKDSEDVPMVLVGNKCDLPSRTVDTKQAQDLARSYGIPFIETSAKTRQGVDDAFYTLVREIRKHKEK
# Sequence (P62937 whole entry): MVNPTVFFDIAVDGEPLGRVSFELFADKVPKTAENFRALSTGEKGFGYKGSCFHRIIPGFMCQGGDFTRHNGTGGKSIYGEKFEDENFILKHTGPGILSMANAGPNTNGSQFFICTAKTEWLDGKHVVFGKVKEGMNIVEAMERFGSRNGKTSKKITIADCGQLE
# method-description: Ras-Raf (BRAF RBD) disruption / FRET / MOA assay, KRAS G12D
# Assay type: biochemical
# settings: Ras-Raf disruption/FRET/MOA assay; class symbols; read-out: KRAS G12D FRET data IC50
Item-by-item account of IC50
measure-name: IC50

compound	recorded-value
CCn1c(-c2cccnc2[C@H](C)OC)c2c3cc(ccc31)-c1csc(n1)C[C@H](NC(=O)[C@H](C(C)C)N(C)C(=O)N1CCC13CN(C(=O)/C=C/CN1CCOCC1)C3)C(=O)N1CCC[C@H](N1)C(=O)OCC(C)(C)C2 (atropisomer, axis not shown)	1 to 10 µM
CCn1c(-c2cccnc2[C@H](C)OC)c2c3cc(ccc31)C1CCCN(C1)C[C@H](NC(=O)[C@@H](COC1CN(C(=O)C#CC(C)(C)N(C)C)C1)C(C)C)C(=O)N1CCC[C@H](N1)C(=O)OCC(C)(C)C2	> 10 µM
C=CC(=O)N1CCC(F)(C(=O)N(C)[C@H](C(=O)N[C@H]2Cc3cccc(c3)-c3ccc4c(c3)c(c(-c3cccnc3[C@H](C)OC)n4CC)CC(C)(C)COC(=O)[C@@H]3CCCN(N3)C2=O)C(C)C)CC1 (atropisomer, axis not shown) [Example A519]	1 to 10 µM
CCn1c(-c2cccnc2[C@H](C)OC)c2c3cc(ccc31)C1=CCCN(C1)C[C@H](NC(=O)[C@H](C(C)C)N(C)C(=O)C1(F)CCN(C(=O)C#CC(C)(C)N(C)C)CC1)C(=O)N1CCC[C@H](N1)C(=O)OCC(C)(C)C2 (atropisomer, axis not shown)	1 to 10 µM
CCn1c(-c2cncnc2)c2c3cc(ccc31)-c1cccc(c1)C[C@H](NC(=O)[C@H](C(C)C)N(C)C(=O)[C@H]1CCN(C(=O)C#CCN3CCOCC3)C1)C(=O)N1CCC[C@H](N1)C(=O)OCC(C)(C)C2	> 10 µM
CCn1c(-c2cccnc2[C@H](C)OC)c2c3cc(ccc31)-c1cccc(c1)C[C@H](NC(=O)[C@H](C(C)C)N1CC[C@]3(CCN(C(=O)C#C[C@H]4COCCN4C4COC4)C3)C1=O)C(=O)N1CCC[C@H](N1)C(=O)OCC(C)(C)C2 (atropisomer, axis not shown)	> 10 µM
CCn1c(-c2cccnc2[C@H](C)OC)c2c3cc(ccc31)-c1csc(n1)C[C@H](NC(=O)[C@H](F)COC1CN(C(=O)C#CC(C)(C)N(C)C)C1)C(=O)N1CCC[C@H](N1)C(=O)OCC(C)(C)C2 (atropisomer, axis not shown)	> 10 µM
C=CC(=O)N(C)C[C@@H]1CCN(C(=O)N(C)[C@H](C(=O)N[C@H]2Cc3nc(cs3)-c3ccc4c(c3)c(c(-c3cccnc3[C@H](C)OC)n4CC)CC(C)(C)COC(=O)[C@@H]3CCCN(N3)C2=O)C(C)C)C1 (atropisomer, axis not shown)	0.1 to 1 µM
C=CC(=O)N1CC[C@]2(COCCN2C(=O)N(C)[C@H](C(=O)N[C@H]2Cc3nc(cs3)-c3ccc4c(c3)c(c(-c3cccnc3[C@H](C)OC)n4CC)CC(C)(C)COC(=O)[C@@H]3CCCN(N3)C2=O)C(C)C)C1 (atropisomer, axis not shown)	1 to 10 µM
C=CC(=O)N1CC[C@H](C(=O)N(C)[C@H](C(=O)N[C@H]2Cc3cc(O)cc(c3)-c3ccc4c(c3)c(c(-c3cnc(N(C)C)s3)n4CC)CC(C)(C)COC(=O)[C@@H]3CCCN(N3)C2=O)C(C)C)C1	> 10 µM
CCn1c(-c2cncnc2)c2c3cc(ncc31)-c1cc(O)cc(c1)C[C@H](NC(=O)[C@H](C(C)C)N(C)C(=O)[C@H]1CCN(C(=O)C#CCN(C)C)C1)C(=O)N1CCC[C@H](N1)C(=O)OCC(C)(C)C2	1 to 10 µM
C=CC(=O)N1CC[C@H](C(=O)N(C)[C@H](C(=O)N[C@H]2Cc3cccc(c3)-c3ccc4c(c3)c(c(-c3cccnc3[C@H](C)OC)n4CC)CC(C)(C)COC(=O)[C@@H]3CCCN(N3)C2=O)C(C)C)[C@H]1C (atropisomer, axis not shown)	1 to 10 µM
C=CC(=O)N1CC2(CCCN2C(=O)N(C)[C@H](C(=O)N[C@H]2Cc3nc(cs3)-c3ccc4c(c3)c(c(-c3cccnc3[C@H](C)OC)n4CC)CC(C)(C)COC(=O)[C@@H]3CCCN(N3)C2=O)C(C)C)C1 (atropisomer, axis not shown)	0.1 to 1 µM
C/C=C/S(=O)(=O)N1CC[C@H](C(=O)N(C)[C@H](C(=O)N[C@H]2Cc3cc(O)cc(c3)-c3ccc4c(c3)c(c(-c3cccnc3[C@H](C)OC)n4CC)CC(C)(C)COC(=O)[C@@H]3CCCN(N3)C2=O)C(C)C)C1 (atropisomer, axis not shown)	1 to 10 µM
C=CC(=O)N1CC[C@H](C(=O)N(C)[C@H](C(=O)N[C@H]2Cc3cccc(n3)-c3ccc4c(c3)c(c(-c3cccnc3[C@H](C)OC)n4CC)CC(C)(C)COC(=O)[C@@H]3CCCN(N3)C2=O)C(C)C)C1 (atropisomer, axis not shown)	> 10 µM
